- measured_on: varicella zoster virus DNA polymerase (Varicella-zoster virus (strain Dumas) (HHV-3) (Human herpesvirus 3))
- experiment_notes: VZV polymerase assay (AlphaLISA)
- condition_summary: VZV polymerase 0.4 nM, 30 min pre-incubation, 60 minute at 37° C.
test_readout: IC50
# include the unit after the value

// below: answered molecules
Cc1nc2cc(-c3cnn(C4CCN(C)CC4)c3)c(O[C@H]3CCN4C(=O)OC[C@@H]4C3)cc2c(=O)n1Cc1ccc(C#N)cc1 | 13 nM
Cc1nc2cc(-c3cc4n(n3)CCN(CC(F)(F)F)C4)c(O[C@H]3CCN4C(=O)OC[C@@H]4C3)cc2c(=O)n1Cc1ccc(Cl)cc1 | 12 nM
Cc1nc2ccc(O[C@H]3CCN4C(=O)OC[C@@H]4C3)cc2c(=O)n1Cc1ccc(Cl)cc1 | 17 nM

Turning to the following molecule.
Exam item: Fill in reported IC50 for this entry: "Cc1nc2cc(-c3cnc(N4CCOCC4)nc3)c(O[C@H]3CCN4C(=O)OC[C@@H]4C3)cc2c(=O)n1Cc1ccc(Cl)cc1"
Marked response: 15 nM
